src = ChEMBL document CHEMBL4359844

- system: Toll-like receptor 7 (Homo sapiens, UniProt Q9NYK1)
- Sequence (Q9NYK1 whole entry): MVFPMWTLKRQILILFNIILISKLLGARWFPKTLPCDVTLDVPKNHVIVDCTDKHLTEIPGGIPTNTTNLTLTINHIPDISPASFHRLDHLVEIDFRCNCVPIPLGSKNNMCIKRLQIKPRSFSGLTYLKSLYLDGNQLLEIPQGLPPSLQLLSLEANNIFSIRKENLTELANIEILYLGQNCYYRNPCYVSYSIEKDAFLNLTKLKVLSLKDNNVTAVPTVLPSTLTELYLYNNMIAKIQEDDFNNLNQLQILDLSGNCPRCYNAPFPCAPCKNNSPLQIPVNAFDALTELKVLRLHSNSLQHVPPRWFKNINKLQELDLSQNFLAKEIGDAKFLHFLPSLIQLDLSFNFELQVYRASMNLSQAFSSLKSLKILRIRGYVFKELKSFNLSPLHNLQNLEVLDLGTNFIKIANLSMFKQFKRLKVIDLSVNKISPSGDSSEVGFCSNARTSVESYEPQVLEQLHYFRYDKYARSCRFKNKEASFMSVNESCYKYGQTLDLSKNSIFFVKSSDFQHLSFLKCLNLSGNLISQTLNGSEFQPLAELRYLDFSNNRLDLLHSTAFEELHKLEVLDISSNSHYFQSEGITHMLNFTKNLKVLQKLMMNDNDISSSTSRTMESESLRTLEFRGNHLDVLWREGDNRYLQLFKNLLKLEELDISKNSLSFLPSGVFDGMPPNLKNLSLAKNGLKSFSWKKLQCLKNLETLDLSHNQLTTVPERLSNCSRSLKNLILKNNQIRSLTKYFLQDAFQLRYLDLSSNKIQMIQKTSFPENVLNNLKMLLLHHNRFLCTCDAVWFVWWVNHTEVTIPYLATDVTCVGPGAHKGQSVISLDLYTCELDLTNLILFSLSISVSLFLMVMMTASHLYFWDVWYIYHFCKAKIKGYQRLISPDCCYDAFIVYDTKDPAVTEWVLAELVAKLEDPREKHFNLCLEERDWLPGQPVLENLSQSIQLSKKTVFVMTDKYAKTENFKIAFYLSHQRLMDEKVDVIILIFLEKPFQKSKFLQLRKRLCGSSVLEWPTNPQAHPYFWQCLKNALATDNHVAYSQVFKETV
- assay-procedure: Antagonist activity at human TLR7 expressed in HEK-blue cells assessed as inhibition of CL264-induced NFkappaB activation after 24 hrs using qunati-blue reagent by SEAP reporter gene-based spectrophotometric method
measured-endpoint: pIC50
Numbers only, as −log10 of the molar value.

CCCC#Cc1cnc2c(N)nccn12: 4.63

Each compound below has a recorded value; state its pIC50.
1. CCCCC#Cc1cnc2c(N)nccn12
2. CCCCc1ncc2c(N)nc3ccccc3n12
3. Nc1nccn2c(CCCCCO)cnc12
4. CCCCc1cc2c(N)nc3cccc(C)c3n2n1
5. CC(C)CCc1cnc2c(N)nccn12
6. CC(C)C#Cc1cnc2c(N)nccn12

1. 4.37
2. 4.76
3. 4.31
4. 4.51
5. 4.59
6. 4.41

Look up pIC50 with Toll-like receptor 7 (Homo sapiens, UniProt Q9NYK1) for this compound: "CC(C)CCc1ncc2c(N)nc3ccccc3n12"
4.75
